# Test system: Intestine
# assay comment: Biodistribution in NMRI mouse intestine at 3.7 MBq/mL, iv after 2 mins by gamma counting
# Type: ADME, organism-based
# assay setup: in vivo
// false (0) strictly below 10% in Drug uptake; true (1) otherwise

Solved cases (2 shown):
// query Please tell me: is the molecule Cc1ccc2nc(-c3ccc([18F])cc3)sc2c1 at or over 10% in terms of Drug uptake?
// result false (0)

// query Check if Drug uptake >= 10% (inclusive). Item: [11CH3]Nc1ccc(-c2nc3ccc(O)cc3s2)cc1 [PITTSBURGH COMPOUND B]
// result true (1)

***
// query Reported Drug uptake at or above 10%? CNc1ccc2nc(-c3ccc([18F])cc3)sc2c1
// result true (1)

// query For this molecule, is measured Drug uptake 10% or higher? Nc1ccc2nc(-c3ccc([18F])cc3)sc2c1
// result true (1)

* * *

# Tested on: Liver
# assay comment: Biodistribution in NMRI mouse liver at 3.7 MBq/mL, iv after 60 mins by gamma counting
# Type: ADME, organism-based
# assay setup: in vivo, 1 h
Mark 1 only when Drug uptake stays strictly below 20%. Values equal to the cut-off are -1.

# example entries with known answers
// query In plain terms, does Cc1ccc2nc(-c3ccc([18F])cc3)sc2c1 come in under 20% for Drug uptake?
// result -1

// query Please determine if CN(C)c1ccc2nc(-c3ccc([18F])cc3)sc2c1 is below 20% in terms of Drug uptake.
// result 1

// query Item [11CH3]Nc1ccc(-c2nc3ccc(O)cc3s2)cc1 [PITTSBURGH COMPOUND B] : Drug uptake beneath 20%, strictly?
// result 1

// query Bench note: check whether CNc1ccc2nc(-c3ccc([18F])cc3)sc2c1 shows Drug uptake below 20%
// result 1

Now, please, on to the next molecule.
// query Decide: Drug uptake of Nc1ccc2nc(-c3ccc([18F])cc3)sc2c1 strictly below 20%?
// result 1

* * *

Would you mind telling me the reported Drug uptake of each entry?
# Tested on: Kidney
# assay comment: Biodistribution in NMRI mouse kidney at 3.7 MBq/mL, iv after 60 mins by gamma counting
# Format: ADME, organism-based
# assay setup: in vivo, 1 h
Numbers only, in %.

Answered cases to consult:
Nc1ccc2nc(-c3ccc([18F])cc3)sc2c1 has a reported Drug uptake of 1

Please fill in: Drug uptake reported for [11CH3]Nc1ccc(-c2nc3ccc(O)cc3s2)cc1 = 4.8

The molecule listed as CN(C)c1ccc2nc(-c3ccc([18F])cc3)sc2c1 shows Drug uptake equal to 4.8

Drug uptake reading for CNc1ccc2nc(-c3ccc([18F])cc3)sc2c1 : 3.2

Consider the additional molecule presented here.
Quick note, Drug uptake for Cc1ccc2nc(-c3ccc([18F])cc3)sc2c1 landed at 2.3

* * *

# Test system: Blood
# assay comment: Biodistribution in NMRI mouse blood assessed per gram of tissue at 3.7 MBq/mL, iv after 2 mins by gamma counting
# Type: ADME, organism-based
# assay setup: in vivo
Give Drug uptake for every item shown.
Numbers only, in %.

Some compounds with recorded Drug uptake:
Input [11CH3]Nc1ccc(-c2nc3ccc(O)cc3s2)cc1 . Output Drug uptake: 3.1

Lab book: Drug uptake of Nc1ccc2nc(-c3ccc([18F])cc3)sc2c1 noted as 2.4

Data point: CNc1ccc2nc(-c3ccc([18F])cc3)sc2c1 ; Drug uptake = 0.7

For reference, reported Drug uptake for CN(C)c1ccc2nc(-c3ccc([18F])cc3)sc2c1 stands at 1.1

***
Sample Cc1ccc2nc(-c3ccc([18F])cc3)sc2c1 ; Drug uptake observed: 2.2
